The entries below come with measured IC50 values attached.
test: Antagonist activity at human CCR5 expressed in HOS cells assessed as inhibition of cell fusion with HIV gp120 expressing HEK293 cells by LTR luciferase assay
endpoint: IC50 (nM)

INSERT INTO results (molecule, unit, observed) VALUES
  ('CCCCN1C(=O)[C@@H]([C@H](O)C(C)C)NC(=O)C12CCN(Cc1ccc(Oc3ccccc3)cc1)CC2', 'nM', 229),
  ('CCCCN1C(=O)C(CC(C)C)NC(=O)C12CCN(Cc1ccc(Oc3ccccc3)cc1)CC2 (configuration not stated)', 'nM', 851);
